Source: paper PMC6657692

Target: T1, Aggregatibacter actinomycetemcomitans leukotoxin (LtxA) (Aggregatibacter actinomycetemcomitans …, UniProt P16462 1-1055)
T1 sequence: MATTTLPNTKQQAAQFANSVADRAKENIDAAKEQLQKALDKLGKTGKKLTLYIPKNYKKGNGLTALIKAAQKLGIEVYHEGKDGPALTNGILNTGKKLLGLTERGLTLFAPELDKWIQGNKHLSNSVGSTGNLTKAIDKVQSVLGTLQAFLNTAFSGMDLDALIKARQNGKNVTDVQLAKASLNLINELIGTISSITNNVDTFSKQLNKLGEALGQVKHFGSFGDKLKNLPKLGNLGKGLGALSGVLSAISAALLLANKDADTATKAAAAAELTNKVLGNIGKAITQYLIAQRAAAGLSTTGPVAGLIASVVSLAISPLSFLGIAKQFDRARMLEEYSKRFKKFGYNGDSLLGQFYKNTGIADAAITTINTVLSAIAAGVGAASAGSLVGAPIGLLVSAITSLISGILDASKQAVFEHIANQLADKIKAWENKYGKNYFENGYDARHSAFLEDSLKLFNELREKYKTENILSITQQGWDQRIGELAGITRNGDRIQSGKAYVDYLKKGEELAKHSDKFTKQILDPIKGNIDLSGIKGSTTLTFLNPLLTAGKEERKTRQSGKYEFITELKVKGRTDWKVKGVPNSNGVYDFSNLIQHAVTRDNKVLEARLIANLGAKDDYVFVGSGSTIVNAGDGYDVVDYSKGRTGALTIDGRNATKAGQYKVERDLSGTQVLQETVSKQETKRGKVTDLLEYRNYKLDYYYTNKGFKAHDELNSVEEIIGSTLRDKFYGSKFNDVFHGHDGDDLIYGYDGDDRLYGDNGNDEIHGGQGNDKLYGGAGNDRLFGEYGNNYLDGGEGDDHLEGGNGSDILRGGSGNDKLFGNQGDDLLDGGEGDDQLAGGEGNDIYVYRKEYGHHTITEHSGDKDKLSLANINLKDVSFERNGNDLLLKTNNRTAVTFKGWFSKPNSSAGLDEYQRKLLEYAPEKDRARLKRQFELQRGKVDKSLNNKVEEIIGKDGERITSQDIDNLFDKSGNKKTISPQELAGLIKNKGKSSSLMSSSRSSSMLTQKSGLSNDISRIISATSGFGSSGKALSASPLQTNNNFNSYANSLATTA
Assay: SPR
value type: Kd (nM)
Answers are plain numbers, in nM.

binder	value type	endpoint value
CKVGFFKRNLKEKMEAGRGVPNGI [αLN peptide (N-terminal, membrane-proximal part of the αL cytoplasmic tail)]	Kd	16
CKALIHLSDLREYRRFEKEKLKSQ [β2N peptide (N-terminal part of the β2 cytoplasmic tail)]	Kd	110

Moving on to another binder below.
Incoming: Could you share which Kd value was measured for αL cytoplasmic tail peptide (integrin αL, LFA-1 α subunit) (peptide) peptide: CKVGFFKRNLKEKMEAGRGVPNGIPAEDSEQLASGQEAGDPGSLKPLHEKDSESGGGKD ?
Outgoing: 15
